Entries and their IC50 values follow.
- TESTED_ON: 11β-HSD1 (Homo sapiens, UniProt P28845)
- Construct: detecting cortisol generated from cortisterone by human liver microsomes; from tissue; host or cells: human liver microsomes
- Sequence (P28845 whole entry): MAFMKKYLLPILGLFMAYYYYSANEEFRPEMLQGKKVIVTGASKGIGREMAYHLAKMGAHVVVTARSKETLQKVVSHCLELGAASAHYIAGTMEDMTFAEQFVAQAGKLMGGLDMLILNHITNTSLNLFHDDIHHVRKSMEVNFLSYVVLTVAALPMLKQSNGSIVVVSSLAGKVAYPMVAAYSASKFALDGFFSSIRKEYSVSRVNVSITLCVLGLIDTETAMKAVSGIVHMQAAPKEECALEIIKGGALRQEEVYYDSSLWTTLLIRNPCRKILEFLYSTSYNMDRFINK
- PROTOCOL_NOTES: In vitro inhibition of 11β-HSD1, HTRF detection of cortisol generated from cortisone by human liver microsomes
- Assay type: biochemical
- CONDITION_DESCRIPTION: 11β-HSD IC50 (nM), 1 hour at 37° C., pH 6.0, NADPH 200 μM, cortisone 80 nM, inhibition relative to carbenoxolone signal
// units = nM; emit number, no label

| MOLECULE | TESTED_ON | PROPERTY_LABEL | DATA_VALUE |
| --- | --- | --- | --- |
| CC12CCN(C(=O)c3ccc4[nH]cnc4c3)C(Cc3cccc(-c4cccnc4)c31)C2(C)C (stereo not drawn) | 11β-HSD1 (Homo sapiens, UniProt P28845) | IC50 | 184 |
| C[C@@H]1[C@H]2Cc3cc4nc[nH]c4cc3[C@]1(C)CCN2C(=O)c1ccc2nc[nH]c2c1 | 11β-HSD1 (Homo sapiens, UniProt P28845) | IC50 | 21 |
| C[C@@H]1[C@H]2Cc3ccc(-c4ccc(=O)n(C)c4)cc3[C@]1(C)CCN2C(=O)c1ccc2nc[nH]c2c1 | 11β-HSD1 (Homo sapiens, UniProt P28845) | IC50 | 121 |
| CC(O)(c1ccc2c(c1)[C@]1(C)CCN(C(=O)c3ccc4nc[nH]c4c3)[C@H](C2)C1(C)C)C(F)(F)F (stereo partly drawn) | 11β-HSD1 (Homo sapiens, UniProt P28845) | IC50 | 35 |
| COc1ccc2c(c1)[C@]1(C)CCN(C(=O)c3cccnc3)[C@H](C2)[C@@H]1C | 11β-HSD1 (Homo sapiens, UniProt P28845) | IC50 | 2550 |
| CC1(C)[C@H]2Cc3c(O)cccc3[C@]1(C)CCN2C(=O)c1ccc(C(=O)N2CCCC2)cc1 | 11β-HSD1 (Homo sapiens, UniProt P28845) | IC50 | 941 |

Kindly review the next molecule as well.
query: Requested field: IC50. Item: "C[C@@H]1[C@H]2Cc3cc4nc(C5CC5)oc4cc3[C@]1(C)CCN2C(=O)c1ccc2nc[nH]c2c1"
result: 424

src = patent US8859580B2
